Cited source for all entries: patent US6214872A

# study_target: Human Collagenase (MMP-1) (Homo sapiens)
# Sequence (P03956 100-469): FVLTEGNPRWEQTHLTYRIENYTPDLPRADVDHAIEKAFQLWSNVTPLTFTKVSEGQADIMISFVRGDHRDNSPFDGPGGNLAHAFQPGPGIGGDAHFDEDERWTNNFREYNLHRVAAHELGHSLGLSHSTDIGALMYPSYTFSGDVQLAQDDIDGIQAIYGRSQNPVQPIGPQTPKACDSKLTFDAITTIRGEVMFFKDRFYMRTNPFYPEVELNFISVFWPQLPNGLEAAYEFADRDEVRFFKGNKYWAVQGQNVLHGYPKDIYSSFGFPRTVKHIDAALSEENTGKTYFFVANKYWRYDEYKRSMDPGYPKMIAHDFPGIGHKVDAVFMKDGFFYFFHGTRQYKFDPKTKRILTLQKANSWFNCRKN
# method_description: Inhibition of Human Collagenase (MMP-1)
# condition: Table 1; human recombinant collagenase, fluorogenic substrate, room temperature
Parameter IC50: see the listing below.
Supply the numeric figure in µM, leaving out any unit text.

[
  {
    "compound": "COc1ccc(S(=O)(=O)N(CCC(=O)O)C(C)(C)C(=O)NO)cc1 [methyl, methyl, hydrogen, methoxy]",
    "study_target": "Human Collagenase (MMP-1) (Homo sapiens)",
    "unit_of_measurement": "µM",
    "IC50": 12
  }
]

As a next step, examine the compound that follows.
Consider the compound "CCOC(=O)CCN(C1(C(=O)NO)CCCC1)S(=O)(=O)c1ccc(Oc2ccc(F)cc2)cc1" and give its measured IC50.
0.1
